Target: PEG-3 (UniProt Q6IN02)
Sequence (Q6IN02 whole entry, looked up): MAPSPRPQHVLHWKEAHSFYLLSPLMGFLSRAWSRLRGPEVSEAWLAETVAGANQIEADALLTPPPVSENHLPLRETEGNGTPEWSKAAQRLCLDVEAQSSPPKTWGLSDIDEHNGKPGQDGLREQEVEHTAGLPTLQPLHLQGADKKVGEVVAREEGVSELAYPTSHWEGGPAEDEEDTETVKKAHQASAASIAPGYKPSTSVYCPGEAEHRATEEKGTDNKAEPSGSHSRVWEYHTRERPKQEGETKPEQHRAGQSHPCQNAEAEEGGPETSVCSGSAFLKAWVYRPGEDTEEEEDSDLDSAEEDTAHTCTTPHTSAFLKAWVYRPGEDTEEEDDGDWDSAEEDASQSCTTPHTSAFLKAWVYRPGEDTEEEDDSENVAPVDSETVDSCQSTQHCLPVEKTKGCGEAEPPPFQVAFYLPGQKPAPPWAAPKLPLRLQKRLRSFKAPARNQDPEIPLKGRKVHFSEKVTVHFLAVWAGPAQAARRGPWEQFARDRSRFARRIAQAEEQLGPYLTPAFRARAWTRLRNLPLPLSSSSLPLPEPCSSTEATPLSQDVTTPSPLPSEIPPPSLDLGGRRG
Assay: Peg3 promoter luciferase inhibitors, potency, dose response, cell-based, HeLa, CREF/GAPDH counter-screen panel (AID 624167)
Details: CREF/GAPDH counter-screens; HeLa PEG-Prom luciferase reporter, overnight, run 1, dose range 1, at 100 µM (top of the series) unless noted
Criterion: inhibition meeting or surpassing 90%. Met: rule met. Not met: rule not met.

>>> print(df.to_string())
                                   molecule         measured_target   group_label
0  CC(=O)c1ccc(-c2cnc3c(NC=O)cc(-c4ccccc4Oc4ccccc4)cn23)cc1  PEG-3 (UniProt Q6IN02)  rule not met
1  CCCN1C/C(=C/c2cccc([N+](=O)[O-])c2)C(=O)/C(=C/c2cccc([N+](=O)[O-])c2)C1  PEG-3 (UniProt Q6IN02)  rule not met
2  CC1(C(=O)NCc2cccc3ccccc23)CCN1C(=O)Cc1ccc(-c2ccccc2)cc1 (centres undefined)  PEG-3 (UniProt Q6IN02)  rule not met
3  CN1C/C(=C/c2ccccc2[N+](=O)[O-])C(=O)/C(=C\c2ccccc2[N+](=O)[O-])C1  PEG-3 (UniProt Q6IN02)      rule met
4  CN(C)c1ccc(C(C(=O)NCc2ccccc2)N(Cc2ccco2)C(=O)c2snc(C(N)=O)c2N)cc1 (centres undefined)  PEG-3 (UniProt Q6IN02)  rule not met
5  CCN(CC)CCCCNc1ncc2cc(-c3cc(OC)cc(OC)c3)c(NC(=O)NC(C)(C)C)nc2n1  PEG-3 (UniProt Q6IN02)      rule met
6  CCc1ccc(/C=C2\SC(=S)N(CCCC(=O)NC3=NCCS3)C2=O)cc1  PEG-3 (UniProt Q6IN02)      rule met

====

Target: Tumor necrosis factor receptor superfamily member 10B (Homo sapiens)
Assay: caspase-8 TRAIL sensitization, hit retest, confirmation, cell-based, NB7+caspase-8, with/without TRAIL, luminescence panel (AID 651596)
Details: NB7 neuroblastoma + caspase-8, TRAIL sensitization, luminescence viability, with TRAIL, mean of runs, at 10 µM, stronger effect = higher value
Dear colleague, classification is by activity, with ranges listed here: lower = under 50%, middle = from 50% up to 80%, upper = 80% and over

In [3]: df
Out[3]:
                                   molecule  group_label
0         CCOc1ccc(/C=C2\CCc3ccccc3C2=O)cc1        upper
1    COc1ccc2oc(C(=O)N3CCc4ccccc43)c(C)c2c1        upper
2  CSCCC(NC(=O)c1ccc(Cl)c([N+](=O)[O-])c1)C(=O)N1CCN(C/C=C/c2ccccc2)CC1 (stereo unspecified)        lower
3  CN(C)c1ccc(-c2nc3ccccn3c2/N=C/c2ccc(Br)cc2)cc1       middle
4      CN1CCN(c2ccc(-c3ccc4ccccc4n3)cc2)CC1        upper
5  CN(CCO)c1cc(Sc2nc3ccccc3s2)c2nonc2c1[N+](=O)[O-]        lower
6          COc1ccc2nc(-c3cccc(N)c3)[nH]c2c1       middle
7  COc1ccc(-c2nsc3c(N4CCCCC4C)ncnc23)cc1 (stereo unspecified)        upper
8        O=C(NNc1nc(=O)c2cccnc2s1)c1ccccc1O        lower
9  O=C(N/N=C/C=C/c1ccccc1)c1cc2c(ccc3ccccc32)o1       middle
